Data provenance: patent US20160114035A1

Target: DRB1*0404
Experiment: binding to purified HLA
Settings: chains peptide; modification not given
parameter: IC50

Task: Given the entry AKFVAAWTLKAAA [SEQ ID NO: 3] , report its measured IC50.
Output: 0.79 nM
